# Experiment: Response profile of probe to fatty acids (Table 2)
# Format: binding
Measured quantity: response profile

18I 31F 72A (protein, listed as Rattus norvegicus, PEPTIDE (1)...(131) wild-type rat intestinal fatty acid binding protein) AFDGTWKVDRNENYEKFIEKMGINVVKRKLFAHDNLKLTITQEGNKFTVKESSNFRNIDVVFELGVDFAYSAADGTELTGTWTMEGNKLVGKFKRVDNGKELIAVREISGNELIQTYTYEGVEAKRIFKKE = Favors LNA
119M, 72A (protein, listed as Rattus norvegicus, PEPTIDE (1)...(131) wild-type rat intestinal fatty acid binding protein) AFDGTWKVDRNENYEKFMEKMGINVVKRKLGAHDNLKLTITQEGNKFTVKESSNFRNIDVVFELGVDFAYSAADGTELTGTWTMEGNKLVGKFKRVDNGKELIAVREISGNELIQTYTMEGVEAKRIFKKE = Favors LNA
